Provenance of the data: the supplement of paper PMC12024424

tested on: Staphylococcus aureus Sa2 (MRSA, cystic fibrosis isolate); experiment: growth reduction vs untreated control (viable cell count); higher = stronger antibacterial activity; extreme values may be limits of the assay; details: 0.1 mM; 24 h
observable: growth reduction (%)
Write the answer as a number in %, unit excluded.

Use the examples below as a reference point.
molecule: CC(OC(=O)NCC1(CC(=O)O)CCCCC1)OC(=O)C(C)C (centres undefined)
growth reduction, %: 93
--
molecule: C[C@H](CCC(=O)O)[C@H]1CC[C@H]2[C@@H]3[C@H](O)C[C@@H]4C[C@H](O)CC[C@]4(C)[C@H]3CC[C@]12C
growth reduction, %: 99
--
molecule: CC1(S(=O)(=O)O)CC(=O)c2ccccc2C1=O (centres undefined) [Menadione bisulfite (sodium)]
growth reduction, %: 100

Input line: Suppose we examine the molecule O=c1nc(OC[C@@H]2COCCO2)cc2n1CCc1cc(C#CC3CC3)ccc1-2 ; what growth reduction value has been reported?
Output line: 93

Input line: Param item: Cc1ccc(-c2c(C(=O)CCl)n(CCCO)c3ncnc(N)c23)cc1
Output line: 100

Input line: Now the same for COc1cc2c(Nc3ccc(Cl)c(Cl)c3F)ncnc2cc1OC[C@@H]1C[C@@H]2CN(C)C[C@@H]2C1
Output line: 100

Input line: Now the molecule Cc1cc(CC(C)CC(C)(C)C)n(O)c(=O)c1 (centres undefined)
Output line: 100

Input line: Now this one: C1=N/C2=N/c3ccc(OCCN4CCCC4)c(c3)COC/C=C/COCc3cccc(c3)C(=C1)N2
Output line: 100

Input line: Then this molecule: CC(C)(C)C#Cc1cc(N(C(=O)[C@H]2CC[C@H](C)CC2)[C@H]2CC[C@H](O)CC2)c(C(=O)O)s1
Output line: 95
